tested on: HT22 cells; experiment: In vitro neurotoxicity without glutamate (MTS cell viability); format: cell-based, mouse; conditions: HT22 cells
Kindly supply the reported Safety Index TC50/PC50 values for the records listed here.
Answers are plain numbers.

{"COMPOUND": "O=C(NC1=CC(=O)c2ccccc2C1=O)c1ccc(Cl)cc1", "PROPERTY MEASURED": "Safety Index TC50/PC50", "ENDPOINT RESULT": 67}
{"COMPOUND": "CN(Cc1ccccc1)C1=CC(=O)c2ccccc2C1=O", "PROPERTY MEASURED": "Safety Index TC50/PC50", "ENDPOINT RESULT": 781}
{"COMPOUND": "COC(=O)NC1=CC(=O)c2ccccc2C1=O", "PROPERTY MEASURED": "Safety Index TC50/PC50", "ENDPOINT RESULT": 72}
{"COMPOUND": "CC1=C(N)C(=O)c2ccccc2C1=O", "PROPERTY MEASURED": "Safety Index TC50/PC50", "ENDPOINT RESULT": 31}
{"COMPOUND": "O=C1C=C(NCc2cccnc2)C(=O)c2ccccc21", "PROPERTY MEASURED": "Safety Index TC50/PC50", "ENDPOINT RESULT": 172}
{"COMPOUND": "CCCNC1=CC(=O)c2ccccc2C1=O", "PROPERTY MEASURED": "Safety Index TC50/PC50", "ENDPOINT RESULT": 91}
{"COMPOUND": "O=C1C=C(NC2CCCC2)C(=O)c2ccccc21", "PROPERTY MEASURED": "Safety Index TC50/PC50", "ENDPOINT RESULT": 108}
{"COMPOUND": "O=C1C=C(Nc2ccccc2)C(=O)c2ccccc21", "PROPERTY MEASURED": "Safety Index TC50/PC50", "ENDPOINT RESULT": 109}
{"COMPOUND": "CC1=CC(=O)c2ccccc2C1=O [VK3, menadione, reference compound]", "PROPERTY MEASURED": "Safety Index TC50/PC50", "ENDPOINT RESULT": 24}
{"COMPOUND": "O=C(NC1=CC(=O)c2ccccc2C1=O)c1cccc(Cl)c1", "PROPERTY MEASURED": "Safety Index TC50/PC50", "ENDPOINT RESULT": 203}

Hey, quick one: what's Safety Index TC50/PC50 for each of these?
1. COc1ccc(CNC2=CC(=O)c3ccccc3C2=O)cc1
2. O=C1C=C(NC(=O)C2CCCC2)C(=O)c2ccccc21
3. NC1=CC(=O)c2ccccc2C1=O

1. 877
2. 0
3. 803

Reported Safety Index TC50/PC50, compound O=C1C=CC(=O)c2ccccc21 [Compound 1a, 1,4-naphthoquinone, reference compound] : ____
12

* * *

For each record, write down the corresponding Safety Index TC50/PC50.
tested on: HT22 cells; test: In vitro neurotoxicity without glutamate (MTS cell viability); type: cell-based, mouse; conditions: HT22 cells

The cases that follow already have their Safety Index TC50/PC50 on record.
{"SMILES RECORD": "O=C1C=C(NCc2ccccc2)C(=O)c2ccccc21", "TEST SYSTEM": "HT22 cells", "PROPERTY MEASURED": "Safety Index TC50/PC50", "ENDPOINT RESULT": "1,136"}
{"SMILES RECORD": "O=C1C=C(NCc2cccc(C(F)(F)F)c2)C(=O)c2ccccc21", "TEST SYSTEM": "HT22 cells", "PROPERTY MEASURED": "Safety Index TC50/PC50", "ENDPOINT RESULT": "2,222"}
{"SMILES RECORD": "O=C1C=C(NCc2ccc(Cl)c(Cl)c2)C(=O)c2ccccc21", "TEST SYSTEM": "HT22 cells", "PROPERTY MEASURED": "Safety Index TC50/PC50", "ENDPOINT RESULT": "2,174"}

Provide the reported Safety Index TC50/PC50 of each entry below, same order.
1. Cc1ccc(CNC2=CC(=O)c3ccccc3C2=O)cc1
2. O=C1C=C(NCc2ccncc2)C(=O)c2ccccc21
3. O=C1C=C(NCc2cccc(Cl)c2)C(=O)c2ccccc21

1. 1,515
2. 1,111
3. 3,226
